- assay: Catalepsy assay in mice
- Assay type: in vivo
- experimental_setup: both sexes, Kunming (KM), mouse, in vivo; po, mice
Each item that follows carries a reported ED50.
API: value field is a number in mg/kg; no unit string.

{"columns": ["compound_structure", "unit_spec", "ED50"],
 "data": [
  ["Fc1ccc2c(C3CCN(CCCSc4nnc(-c5ccc(Cl)cc5)o4)CC3)noc2c1", "mg/kg", 92.7],
  ["Fc1ccc2c(C3CCN(CCCSc4nnc(-c5cccc6ccccc56)o4)CC3)noc2c1", "mg/kg", 300]
]}

Now look at this one.
Entry COc1ccc(-c2nnc(SCCCN3CCC(c4noc5cc(F)ccc45)CC3)o2)cc1 : reported ED50 = ? 640
